target_under_test: hSCN3A sodium channels (Homo sapiens, UniProt Q9NY46)
Construct: expressed in transfected cells
Sequence (Q9NY46 whole entry): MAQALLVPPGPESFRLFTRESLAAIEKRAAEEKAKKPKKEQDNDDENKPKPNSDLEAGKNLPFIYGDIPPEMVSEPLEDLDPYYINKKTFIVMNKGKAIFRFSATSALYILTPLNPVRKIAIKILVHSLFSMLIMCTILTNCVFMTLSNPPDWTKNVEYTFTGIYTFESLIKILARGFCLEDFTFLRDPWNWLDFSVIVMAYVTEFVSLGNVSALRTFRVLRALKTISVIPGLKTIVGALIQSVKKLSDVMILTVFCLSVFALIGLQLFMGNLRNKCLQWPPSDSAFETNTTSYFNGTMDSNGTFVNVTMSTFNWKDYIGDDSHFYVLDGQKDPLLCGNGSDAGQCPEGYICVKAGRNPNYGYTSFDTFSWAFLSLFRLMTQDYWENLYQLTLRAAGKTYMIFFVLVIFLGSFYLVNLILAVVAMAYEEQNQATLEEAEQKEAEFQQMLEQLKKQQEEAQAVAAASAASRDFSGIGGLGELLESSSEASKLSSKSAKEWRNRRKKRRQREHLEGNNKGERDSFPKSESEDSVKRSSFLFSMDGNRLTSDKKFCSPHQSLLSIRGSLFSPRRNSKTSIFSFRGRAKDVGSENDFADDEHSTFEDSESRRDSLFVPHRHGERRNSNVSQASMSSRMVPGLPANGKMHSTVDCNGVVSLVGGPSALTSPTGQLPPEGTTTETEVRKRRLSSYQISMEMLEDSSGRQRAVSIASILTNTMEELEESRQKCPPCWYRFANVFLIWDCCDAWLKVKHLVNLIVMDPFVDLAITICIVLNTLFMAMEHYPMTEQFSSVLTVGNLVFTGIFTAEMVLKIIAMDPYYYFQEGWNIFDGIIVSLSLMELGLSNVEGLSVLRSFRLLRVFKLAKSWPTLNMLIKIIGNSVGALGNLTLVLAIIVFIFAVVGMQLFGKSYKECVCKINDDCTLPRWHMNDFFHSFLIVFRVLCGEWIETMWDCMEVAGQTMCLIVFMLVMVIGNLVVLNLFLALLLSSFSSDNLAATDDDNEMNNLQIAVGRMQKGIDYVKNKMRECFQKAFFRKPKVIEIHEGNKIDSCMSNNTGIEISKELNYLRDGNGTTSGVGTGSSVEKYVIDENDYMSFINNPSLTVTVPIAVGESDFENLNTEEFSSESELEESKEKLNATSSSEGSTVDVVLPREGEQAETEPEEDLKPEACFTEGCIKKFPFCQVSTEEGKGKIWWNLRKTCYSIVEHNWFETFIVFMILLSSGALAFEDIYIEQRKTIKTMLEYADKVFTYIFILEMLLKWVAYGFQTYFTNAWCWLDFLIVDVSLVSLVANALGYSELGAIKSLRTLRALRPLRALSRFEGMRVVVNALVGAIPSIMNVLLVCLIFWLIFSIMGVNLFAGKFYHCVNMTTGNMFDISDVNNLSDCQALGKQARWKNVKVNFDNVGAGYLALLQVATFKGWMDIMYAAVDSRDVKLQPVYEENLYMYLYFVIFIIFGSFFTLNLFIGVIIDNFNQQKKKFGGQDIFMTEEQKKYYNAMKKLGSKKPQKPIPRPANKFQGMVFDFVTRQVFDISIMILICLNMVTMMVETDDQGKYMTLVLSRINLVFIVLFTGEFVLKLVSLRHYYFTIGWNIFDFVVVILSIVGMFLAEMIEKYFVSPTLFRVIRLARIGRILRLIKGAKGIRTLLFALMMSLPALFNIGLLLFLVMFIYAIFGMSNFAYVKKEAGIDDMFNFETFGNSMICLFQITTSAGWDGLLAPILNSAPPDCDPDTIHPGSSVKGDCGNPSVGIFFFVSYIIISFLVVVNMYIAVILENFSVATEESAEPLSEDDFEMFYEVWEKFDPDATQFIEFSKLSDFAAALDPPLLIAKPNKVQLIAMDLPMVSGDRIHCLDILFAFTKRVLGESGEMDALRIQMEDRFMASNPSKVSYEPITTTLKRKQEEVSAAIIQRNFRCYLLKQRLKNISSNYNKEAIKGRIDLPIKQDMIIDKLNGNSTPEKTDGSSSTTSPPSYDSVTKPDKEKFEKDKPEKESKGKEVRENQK
protocol_notes: hSCN3A electrophysiology, Ionworks Quattro automated platform (Table C)
Format: cell-based
condition_info: 10 μM compound, read-out: SCN3A % INHIB HTS IWQ 10 μM
inhibition at 10 µM below 20% gives Condition not met; inhibition at 10 µM at or above it gives Condition met.

See these solved cases before continuing.
                                   molecule                         target_under_test                cat
0  O=C(NCc1cccc(OC(F)(F)F)c1)c1ccc(S(=O)(=O)Nc2nccs2)c(Cl)c1  hSCN3A sodium channels (Homo sapiens, UniProt Q9NY46)      Condition met
1  O=C(c1ccc(S(=O)(=O)Nc2nccs2)cc1)N1CCC(COCC2CC2)C1 (centres unmarked)  hSCN3A sodium channels (Homo sapiens, UniProt Q9NY46)  Condition not met
2  O=C(NC(CO)c1ccccc1)c1ccc(S(=O)(=O)Nc2nccs2)cc1 (centres unmarked)  hSCN3A sodium channels (Homo sapiens, UniProt Q9NY46)      Condition met
3  N#Cc1cccc(OCC2CCCN(C(=O)c3ccc(S(=O)(=O)Nc4nccs4)cc3)C2)c1 (centres unmarked)  hSCN3A sodium channels (Homo sapiens, UniProt Q9NY46)      Condition met
4  O=C(c1ccc(S(=O)(=O)Nc2nccs2)cc1)N1CCCC[C@@H]1c1ccccn1  hSCN3A sodium channels (Homo sapiens, UniProt Q9NY46)  Condition not met
5  CC(c1ccccc1)N(CCO)C(=O)c1ccc(S(=O)(=O)Nc2nccs2)cc1 (centres unmarked)  hSCN3A sodium channels (Homo sapiens, UniProt Q9NY46)  Condition not met
6  CN(CCC(O)c1ccccc1)C(=O)c1ccc(S(=O)(=O)Nc2nccs2)cc1 (centres unmarked)  hSCN3A sodium channels (Homo sapiens, UniProt Q9NY46)  Condition not met
7  O=C(NCc1ccccc1)c1ccc(S(=O)(=O)Nc2nccs2)cc1  hSCN3A sodium channels (Homo sapiens, UniProt Q9NY46)      Condition met

// inclusive: inhibition at 10 µM at least 20%? input: O=C(c1ccc(S(=O)(=O)Nc2nccs2)cc1)N1CCOCC(O)(Cc2ccccc2)C1 (centres unmarked) Condition not met

Decide: inhibition at 10 µM of COc1ccc(CCNC(=O)c2ccc(S(=O)(=O)Nc3nccs3)cc2)cc1 >= 20%? Condition met

# check: inhibition at 10 µM of CC[C@H](NC(=O)c1ccc(S(=O)(=O)Nc2nccs2)cc1)c1ccccc1 is greater than or equal to 20% Condition not met

###

Catalogue of inhibition at 3 µM readings, one per entry.
target_under_test: hSCN3A sodium channels (Homo sapiens, UniProt Q9NY46)
Construct: expressed in transfected cells
protocol_notes: hSCN3A electrophysiology, Ionworks Quattro automated platform (Table C)
Format: cell-based
condition_info: 3 μM compound, read-out: SCN3A % INHIB HTS IWQ 3 μM
Write it as a number; the unit % goes unstated.

Worked set:
>>> print(df.to_string())
                                   molecule       property_name  value_reported
0  COc1ccc(C2CC(CO)CN2C(=O)c2ccc(S(=O)(=O)Nc3nccs3)cc2)cc1 (centres unmarked)  inhibition at 3 µM            13.2
1  COc1ccccc1CC1(NC(=O)c2ccc(S(=O)(=O)Nc3nccs3)cc2)CC1  inhibition at 3 µM            11.3

Sample O=C(c1ccc(S(=O)(=O)Nc2nccs2)cc1)N1CCCCC1c1cccc(F)c1 (centres unmarked) — what was its inhibition at 3 µM? 19.9

Consider the molecule O=C(c1ccc(S(=O)(=O)Nc2nccs2)cc1)N1CCCCCC1c1ccccn1 (centres unmarked) and give its measured inhibition at 3 µM. 4.16

What value of measured inhibition at 3 µM is listed for O=C(c1ccc(S(=O)(=O)Nc2nccs2)cc1)N(Cc1ccccc1)[C@@H]1CCCC[C@@H]1CO ? -1.52

Reference source: patent US8741934B2
